Assay procedure: logP determination by reversed-phase HPLC (EEC Directive 79/831 Annex V.A8)
Assay type: physicochemical
Conditions: reversed-phase HPLC column (C18); acidic range: 0.1% aqueous phosphoric acid/acetonitrile gradient, C18, 43° C.; read-out: logP a)
Test readout: chromatographic logP

As a guide, the following entries are already answered.
INSERT INTO measurements (compound, test_readout, obs_value) VALUES
  ('CC(C)(C)n1nnc(-c2cnc(SCCC(F)=C(F)F)nc2)n1 [Example 67]', 'chromatographic logP', 4.22),
  ('COc1cccnc1-c1ccnc(SCCC=C(F)F)n1 [Example 37]', 'chromatographic logP', 2.14),
  ('FC(F)=CCCSc1nccc(-n2nnc3ccccc32)n1 [Example 40]', 'chromatographic logP', 3.97),
  ('FC(F)=CCCSc1nccc(-c2cccnc2)n1 [Example 9]', 'chromatographic logP', 1.96);

// returns reported chromatographic logP for input FC(F)=CCCSc1nccc(-c2cc(-c3ccccc3)ccn2)n1 [Example 32] 4.77

I would be grateful if you could share the reported chromatographic logP for COc1ccc(-c2ccnc(SCCC(F)=C(F)F)n2)nc1 [Example 49] . 2.17

Fill in: chromatographic logP of CC(C)(C)c1ccnc(-c2ccnc(SCCC=C(F)F)n2)c1 [Example 33] is ___ 4.8

Form field: reported chromatographic logP of Cc1cc(-c2ccnc(SCCC(F)=C(F)F)n2)c(C)s1 [Example 62] 4.79

What chromatographic logP value was documented for this compound, FC(F)=CCCSc1nccc(-n2nc3ccccc3n2)n1 [Example 42] ? 3.98

Could you share which chromatographic logP value was measured for CCOc1cccc(-c2ccnc(SCCC=C(F)F)n2)n1 [Example 20] ? 4.91

This collection of values is drawn from patent US20060106042A1.
